System: K-562 leukemia
Assay: NCI tumour cell line growth inhibition, 48 h
TGI for assorted compounds

Consider the reported TGI for these compounds:
>  <compound>
O=c1c2ccccc2nc2n1-c1ccccc1SC2

>  <observed>
> 100 µM

$$$$
>  <compound>
O=C(OC1CCC2OOC1O2)c1ccc([N+](=O)[O-])cc1 (stereo unspecified)

>  <observed>
> 100 µM

$$$$
>  <compound>
COc1ccc(Nc2cc(C)nc(NCc3ccccc3)n2)cc1

>  <observed>
15.3 µM

$$$$

Hello, please tell me recorded TGI for this one: CC1=NNC(=O)C1C1CC(c2c[nH]c3ccccc23)=NN(C(N)=O)C1=O (stereo unspecified)
> 100 µM

Item `Cc1ccc(-c2cc3c4c(nc5ccccc53)C(=O)c3cccnc3-c4n2)cc1` : provide TGI
> 100 µM

Please give the documented TGI of `COc1cc2oc(-c3ccc4c(c3)OCO4)c(OC)c(=O)c2c(OC)c1O`
> 100 µM

Where these numbers come from: PubChem BioAssay (NCI)
